GI50 values recorded for HCT-15
I only need the number, in µM, no unit after it.

[ask] // lookup GI50 for O=[N+]([O-])/C=C/c1cc2ccccc2[nH]1
[reply] 21.5

[ask] Report GI50 for COC1=C(OC)C(=O)C(Cc2c(Cl)nc3sc(C)cn23)=C(C)C1=O please.
[reply] 24.9

[ask] Reported GI50, molecule CSc1ccc(C2C(Cl)C(=O)N2NC(=O)c2c(Cl)c(Cl)c(Cl)c(Cl)c2-c2nc3ccccc3[nH]2)cc1 (stereo not given) : ____
[reply] 19.1

[ask] // GI50 lookup, key: NS(=O)(=O)c1ccc(NC(=O)c2cccc3cc4ccccc4nc23)cc1
[reply] 12.6

Sourced from ChEMBL document CHEMBL1201862
